target: HMGCR (TM1-8)-GFP (Cricetulus griseus, UniProt P00347); experiment: HMGCR (TM1-8)-GFP fluorescent assay (high-content imaging) in CHG cells; conditions: 16 h, read-out: HMGCR (TM1-8)-GFP fluorescent intensity, mean
Sequence (P00347 1-346): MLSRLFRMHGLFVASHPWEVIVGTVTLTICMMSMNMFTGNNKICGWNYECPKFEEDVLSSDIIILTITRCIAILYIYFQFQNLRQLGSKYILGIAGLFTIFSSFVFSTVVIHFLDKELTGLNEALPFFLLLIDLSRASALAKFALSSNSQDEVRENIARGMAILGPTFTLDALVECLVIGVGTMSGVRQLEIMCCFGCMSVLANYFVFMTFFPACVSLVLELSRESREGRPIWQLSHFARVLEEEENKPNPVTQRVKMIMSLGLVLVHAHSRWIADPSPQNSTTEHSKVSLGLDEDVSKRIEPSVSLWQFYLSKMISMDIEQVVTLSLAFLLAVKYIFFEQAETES
Each record here notes measured remaining activity at 10 µM.
observation.type: remaining activity at 10 µM (%)

molecule	target.under.test	measurement
C=CCC1(CC=C)C2=CCC3C(CC[C@@]4(C)C3CC[C@@H]4[C@H](C)CCCC(C)C)[C@@]2(C)CC[C@@H]1O (stereo partly shown)	HMGCR (TM1-8)-GFP (Cricetulus griseus, UniProt P00347)	93.7
CC(C)CCC[C@@H](C)[C@H]1CCC2C3C(=O)C=C4C(C)(C)[C@@H](O)CC[C@]4(C)C3CC[C@@]21C (stereo partly shown)	HMGCR (TM1-8)-GFP (Cricetulus griseus, UniProt P00347)	95.2
COCCC1(CCOC)C2=CCC3C(CC[C@@]4(C)C3CC[C@@H]4[C@H](C)CCCC(C)C)[C@@]2(C)CC[C@@H]1O (stereo partly shown)	HMGCR (TM1-8)-GFP (Cricetulus griseus, UniProt P00347)	99.4
CC(C)CCC[C@@H](C)[C@H]1CCC2C3CC=C4C5(CCCCC5)[C@@H](O)CC[C@]4(C)C3CC[C@@]21C (stereo partly shown)	HMGCR (TM1-8)-GFP (Cricetulus griseus, UniProt P00347)	103
